src = patent US20140056907A1

# tgt: T1, mouse ASIC1a (mouse, UniProt Q6NXK8 1-526)
# T1 construct: whole, on cells; Expressed on stably transfected 3T3 cells (3T3/mASIC1a); also called mASIC1a
# T1 sequence (looked up): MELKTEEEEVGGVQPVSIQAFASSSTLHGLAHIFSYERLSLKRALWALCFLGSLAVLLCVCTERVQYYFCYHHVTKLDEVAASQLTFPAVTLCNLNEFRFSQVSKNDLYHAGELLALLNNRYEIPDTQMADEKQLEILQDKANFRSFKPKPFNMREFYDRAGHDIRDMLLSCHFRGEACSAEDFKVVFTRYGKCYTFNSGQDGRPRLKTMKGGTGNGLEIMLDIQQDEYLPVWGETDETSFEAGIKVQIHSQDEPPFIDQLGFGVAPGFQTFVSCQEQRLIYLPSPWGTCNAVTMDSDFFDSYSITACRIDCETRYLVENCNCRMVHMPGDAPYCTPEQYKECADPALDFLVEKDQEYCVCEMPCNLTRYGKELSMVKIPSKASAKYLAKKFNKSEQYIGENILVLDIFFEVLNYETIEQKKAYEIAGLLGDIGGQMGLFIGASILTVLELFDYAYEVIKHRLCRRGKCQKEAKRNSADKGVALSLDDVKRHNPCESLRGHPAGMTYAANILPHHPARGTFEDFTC
# experimentDescription: FACS, 3T3/mASIC1a cells

binder | binding result
H1M7101N (antibody, mouse IgG1, V domains shown) VH: EVQLLASGGGLVQTGGSLRLSCAASGFTFSSFAMSWVRQAPGKGLEWVSGISGSGGSTYYADSVKGRFTISRDNSKNTLYLQMNSLRAEDTAAYYCAKEAYKWQPWGQGIRVTVSS VL: DIQMTQSPSTLSASVGDRVTITCRASQSISSWLAWYQQKPGKAPNLLIYKTSNLESGVPSRFSGSGSGTEFTLTISSLQPDDFATYYCQQYNSYSYTFGQGTKLEIK | binds
H3M6726N (antibody, V domains shown, Chimeric: human variable, mouse constant domains; H3M prefix marks the Fc, isotype not spelled out) VH: EVQLLESGGVLVQPGGSLRLSCAASGFNFNNYDMSWVRQAPGKGLEWVSVISASGRNTYYADSVKGRFTISRDNSKISLYLQMNSLRPEDTAVYYCAKDHLVHYYYGMDVWGQGTTVTVSS VL: DIMMTQSPLSLSVTPGEPASISCRSSQSLLHSNGYNYLDWYLQKSGQSPHLLIYLGSNRASGVPDRFSGSGSGTDFTLKISRVEAEDGGVYYCMQALQTPRTFGQGTKVEIK | binds
